pIC50: −log10 of the molar value.
Each entry below carries its measured pIC50, system: Non-receptor tyrosine-protein kinase TYK2 (Homo sapiens).
Sequence (P29597 whole entry): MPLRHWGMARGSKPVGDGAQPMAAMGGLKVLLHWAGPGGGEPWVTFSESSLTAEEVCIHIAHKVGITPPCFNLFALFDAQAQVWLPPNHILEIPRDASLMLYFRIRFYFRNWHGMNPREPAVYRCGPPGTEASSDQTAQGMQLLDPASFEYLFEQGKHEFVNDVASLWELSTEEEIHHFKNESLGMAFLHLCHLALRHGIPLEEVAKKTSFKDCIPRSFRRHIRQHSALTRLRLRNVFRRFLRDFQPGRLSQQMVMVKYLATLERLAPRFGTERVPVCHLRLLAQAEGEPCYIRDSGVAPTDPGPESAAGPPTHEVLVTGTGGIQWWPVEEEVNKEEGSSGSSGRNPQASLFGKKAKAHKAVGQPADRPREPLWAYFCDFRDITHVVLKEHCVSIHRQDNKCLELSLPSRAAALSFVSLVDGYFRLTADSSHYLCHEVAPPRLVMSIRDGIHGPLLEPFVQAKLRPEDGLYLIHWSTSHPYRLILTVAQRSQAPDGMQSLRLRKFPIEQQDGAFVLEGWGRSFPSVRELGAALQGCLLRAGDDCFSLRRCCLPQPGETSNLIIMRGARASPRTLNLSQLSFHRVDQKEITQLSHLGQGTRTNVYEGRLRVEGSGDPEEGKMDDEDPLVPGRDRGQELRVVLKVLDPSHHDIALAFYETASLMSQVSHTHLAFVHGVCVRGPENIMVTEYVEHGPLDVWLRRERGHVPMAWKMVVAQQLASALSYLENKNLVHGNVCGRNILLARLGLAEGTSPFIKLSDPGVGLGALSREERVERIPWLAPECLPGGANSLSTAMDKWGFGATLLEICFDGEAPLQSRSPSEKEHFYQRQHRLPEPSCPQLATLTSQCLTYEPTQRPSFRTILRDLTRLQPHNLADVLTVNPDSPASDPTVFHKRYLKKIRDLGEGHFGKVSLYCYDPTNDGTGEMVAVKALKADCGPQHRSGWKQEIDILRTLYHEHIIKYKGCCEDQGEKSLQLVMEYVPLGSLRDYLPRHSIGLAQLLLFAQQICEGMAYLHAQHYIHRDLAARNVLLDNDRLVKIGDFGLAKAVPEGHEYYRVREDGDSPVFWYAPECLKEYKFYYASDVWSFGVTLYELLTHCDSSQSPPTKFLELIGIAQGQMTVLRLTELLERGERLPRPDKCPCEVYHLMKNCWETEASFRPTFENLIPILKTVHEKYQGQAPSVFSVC
attribute-measured: pIC50

O=C1NC(=O)C(c2c[nH]c3ccccc23)=C1c1cc(N2CCNCC2)ccc1C(F)(F)F	< 5.00
O=C1NC(=O)C(c2c[nH]c3ccccc23)=C1c1cc(F)ccc1C(F)(F)F	< 5.00
CN(C)c1ccc(C(F)(F)F)c(C2=C(c3c[nH]c4ccccc34)C(=O)NC2=O)c1	< 5.00
O=CN1CCN(c2ccc(C(F)(F)F)c(C3=C(c4c[nH]c5ccccc45)C(=O)NC3=O)c2)CC1	5.30
O=C1NC(=O)C(c2c[nH]c3ccccc23)=C1c1cc(N2CCOCC2)ccc1C(F)(F)F	< 5.00
